# reported-conditions: in THF, 303.15 K
assay-endpoint: solubility (mole fraction)

[[record]]
compound = "C#C[C@]1(O)CC[C@H]2[C@@H]3CCC4=CC(=O)CC[C@@H]4[C@H]3C(=C)C[C@@]21CC"
assay_endpoint = "solubility (mole fraction)"
test_result = 0.2


* * *

# reported-conditions: in n-butanol, 288.15 K
assay-endpoint: solubility (mole fraction)

[[record]]
compound = "C#C[C@]1(O)CC[C@H]2[C@@H]3CCC4=CC(=O)CC[C@@H]4[C@H]3C(=C)C[C@@]21CC"
test_result = 0.00742


* * *

# reported-conditions: in water, 278.15 K
assay-endpoint: solubility (mole fraction)

[[record]]
compound = "C#C[C@]1(O)CC[C@H]2[C@@H]3CCC4=CC(=O)CC[C@@H]4[C@H]3C(=C)C[C@@]21CC"
assay_endpoint = "solubility (mole fraction)"
test_result = "1.64e-05"


Values from BigSolDB 2.1
